# System: green peach aphid (Myzus persicae)
# assay_comment: Myzus test (spray treatment)
# Format: in vivo
# measurement_setup: foliar, application rate of 500 g/ha, sprayed Chinese cabbage leaf discs, read-out: activity (effect in %, aphids killed)
result_type: pest or weed control at 500 g/ha

// query Look at this compound and give its reported pest or weed control at 500 g/ha. Cc1nc(-c2cccnc2)sc1-c1ccn(C(=S)NC(C)c2ccccc2)n1 (centres unmarked) [compound 136]
// result ≥ 80%

// query Look at this compound and give its reported pest or weed control at 500 g/ha. CCCOCC(C)NC(=O)n1ccc(-c2sc(-c3cccnc3)nc2C)n1 (centres unmarked) [compound 114]
// result ≥ 80%

// query Look at this compound and give its reported pest or weed control at 500 g/ha. Cn1c(C(F)(F)F)nn(-c2cccc(-c3cnc(-c4cccnc4)s3)n2)c1=O [compound 157]
// result ≥ 80%

// query Look at this compound and give its reported pest or weed control at 500 g/ha. Cc1nc(-c2cccnc2)sc1-n1ccc(C(F)(F)F)n1 [Ex. No. 14]
// result ≥ 80%

// query Look at this compound and give its reported pest or weed control at 500 g/ha. Cc1nc(-c2cccnc2)sc1-n1ccc(-c2ccccc2C(F)(F)F)n1 [compound 38]
// result ≥ 80%

// query Look at this compound and give its reported pest or weed control at 500 g/ha. COC(=O)/C(=N\O)c1nccc(-c2sc(-c3cccnc3)nc2C)n1 [compound 53]
// result ≥ 80%

// query Look at this compound and give its reported pest or weed control at 500 g/ha. Cc1nc(-c2cccnc2)sc1-c1ccn(C(=O)NCC(F)(F)F)n1 [compound 128]
// result ≥ 80%

// query Look at this compound and give its reported pest or weed control at 500 g/ha. Cc1nc(-c2cccnc2)sc1-c1ccn(-c2nnc(C3CC3)s2)n1 [compound 86]
// result ≥ 80%

====

# assay_comment: logP determination by HPLC (formic acid method)
# Assay type: physicochemical
# measurement_setup: reversed-phase HPLC column (C18), pH 3.4, HPLC on reversed-phase column (C18), acidic range (pH 3.4), 55° C.; read-out: logP (HCOOH)
Exercise: state measured chromatographic logP for each of the compounds provided.
Respond using a number only.

// query Look at this compound and give its reported chromatographic logP. Cc1nc(-c2cccnc2)sc1-c1cccc(N2CC(C)OC(C)C2)n1 (stereo not shown) [compound 98]
// result 3.55

// query Look at this compound and give its reported chromatographic logP. COCc1nccc(-c2cc(-c3cccnc3)nn2C)n1 [compound 167]
// result 0.83

// query Look at this compound and give its reported chromatographic logP. Cc1nc(-c2cccnc2)sc1-n1cc(-c2ccccn2)cn1 [compound 39]
// result 1.55

// query Look at this compound and give its reported chromatographic logP. Cc1nc(-c2cccnc2)sc1-c1ccnc(C(F)(F)C(F)(F)F)n1 [compound 142]
// result 3.35

// query Look at this compound and give its reported chromatographic logP. Cc1nc(-c2cccnc2)sc1-c1ccn(-c2nnc(C(F)F)s2)n1 [compound 85]
// result 2.8

// query Look at this compound and give its reported chromatographic logP. Cc1nc(-c2cccnc2)sc1-c1ccncn1 [compound 90]
// result 1.39

// query Look at this compound and give its reported chromatographic logP. Cc1nc(-c2cccnc2)sc1-c1cccc(-c2nccnn2)n1 [Preparation Example 4]
// result 1.58

// query Look at this compound and give its reported chromatographic logP. c1cnc(-c2noc(-c3cnc(-c4cccnc4)s3)n2)nc1 [compound 70]
// result 1.4

// query Look at this compound and give its reported chromatographic logP. Cc1cc(-c2nccc(-c3sc(-c4cccnc4)nc3C)n2)n(C)n1 [compound 44]
// result 2.4

// query Look at this compound and give its reported chromatographic logP. Cc1nccn1-c1cccc(-c2cnc(-c3cccnc3)s2)n1 [compound 201]
// result 0.89

// query Look at this compound and give its reported chromatographic logP. c1cnc(-n2ccc(-c3nnc(-c4cccnc4)s3)n2)nc1 [compound 160]
// result 1.44

// query Look at this compound and give its reported chromatographic logP. Cc1ccn(-c2cccc(-c3cnc(-c4cccnc4)s3)n2)n1 [compound 189]
// result 2.85

// query Look at this compound and give its reported chromatographic logP. Cn1nc(-c2cccnc2)cc1-c1ccn(-c2ccccn2)n1 [compound 169]
// result 1.64

// query Look at this compound and give its reported chromatographic logP. CSCCNC(=O)n1ccc(-c2sc(-c3cccnc3)nc2C)n1 [compound 129]
// result 2.34

// query Look at this compound and give its reported chromatographic logP. Cn1nc(-c2cccnc2)cc1-c1ccnc(-c2ccccn2)n1 [compound 171]
// result 0.87

// query Look at this compound and give its reported chromatographic logP. Cc1nc(-c2nccc(-c3sc(-c4cccnc4)nc3C)n2)cs1 [compound 56]
// result 2.08

// query Look at this compound and give its reported chromatographic logP. CCN(C)C(=O)c1cccc(-c2nnc(-c3cccnc3)s2)n1 [compound 248]
// result 1.54

// query Look at this compound and give its reported chromatographic logP. O=C(NCC(F)(F)F)c1cccc(-c2nnc(-c3cccnc3)s2)n1 [compound 241]
// result 2.07

// query Look at this compound and give its reported chromatographic logP. Cc1nc(-c2cccnc2)sc1-c1nc(N)nc(C(C)F)n1 (stereo not shown) [compound 93]
// result 1.86

====

# assay_comment: logP determination by HPLC (formic acid method)
# Type: physicochemical
# measurement_setup: reversed-phase HPLC column (C18), pH 3.4, HPLC on reversed-phase column (C18), acidic range (pH 3.4), 55° C.; read-out: logP (HCOOH)
result_type: chromatographic logP

// query Look at this molecule and give its reported chromatographic logP. COCc1nccc(-c2sc(-c3cccnc3)nc2C)n1 [compound 61]
// result 1.57

// query Look at this molecule and give its reported chromatographic logP. Cc1nc(-c2cccnc2)sc1-c1cc(C(F)(F)F)ncn1 [compound 111]
// result 2.8

// query Look at this molecule and give its reported chromatographic logP. Cc1nc(-c2cccnc2)sc1-c1nc(-c2cc3ccccc3cn2)no1 [compound 72]
// result 3.11

// query Look at this molecule and give its reported chromatographic logP. Cc1nc(-c2cccnc2)sc1-c1cccc(N2CCOCC2)n1 [compound 96]
// result 2.58

// query Look at this molecule and give its reported chromatographic logP. O=C(c1cccc(-c2nnc(-c3cccnc3)s2)n1)N1CCOCC1 [compound 250]
// result 1.29

// query Look at this molecule and give its reported chromatographic logP. c1cncc(-c2nnc(-c3ccncc3)s2)c1 [compound 158]
// result 1.41

// query Look at this molecule and give its reported chromatographic logP. c1cnc(N2CCOC(c3cnc(-c4cccnc4)s3)=N2)nc1 [compound 67]
// result 1.9

// query Look at this molecule and give its reported chromatographic logP. Cc1nc(-c2cccnc2)sc1-c1ccn(Cc2ncccn2)n1 [compound 146]
// result 1.43

// query Look at this molecule and give its reported chromatographic logP. Cc1nc(-c2cccnc2)sc1-c1cccc(C(F)(F)F)n1 [compound 21]
// result 3.01

// query Look at this molecule and give its reported chromatographic logP. FC(F)(F)c1noc(-c2cnc(-c3cccnc3)s2)n1 [compound 71]
// result 2.7

====

Exercise: state measured chromatographic logP for each of the compounds provided.
# assay_comment: logP determination by HPLC (formic acid method)
# Format: physicochemical
# measurement_setup: reversed-phase HPLC column (C18), pH 3.4, HPLC on reversed-phase column (C18), acidic range (pH 3.4), 55° C.; read-out: logP (HCOOH)
Respond using a number only.

// query Look at this compound and give its reported chromatographic logP. c1cnc(-n2nccc2-c2nnc(-c3cccnc3)s2)nc1
// result 1.13

// query Look at this compound and give its reported chromatographic logP. Cc1nc(-c2cccnc2)sc1-c1nc(-c2cccnc2)no1
// result 2.51

// query Look at this compound and give its reported chromatographic logP. c1cncc(-c2ncc(-c3cccc(-c4ncon4)n3)s2)c1
// result 1.74

// query Look at this compound and give its reported chromatographic logP. Cc1nc(-c2cccnc2)sc1-c1nccc(C(F)(F)F)n1
// result 3.14

// query Look at this compound and give its reported chromatographic logP. FC(F)(F)Oc1cccc(-c2nnc(-c3cccnc3)s2)c1
// result 3.16

// query Look at this compound and give its reported chromatographic logP. Cc1cccc(-c2nccc(-c3sc(-c4cccnc4)nc3C)n2)n1
// result 1.49

// query Look at this compound and give its reported chromatographic logP. Cc1cc(C)nc(-c2nccc(-c3sc(-c4cccnc4)nc3C)n2)c1
// result 1.36

// query Look at this compound and give its reported chromatographic logP. Cc1nc(-c2cccnc2)sc1-c1ccn(C(=O)NC(C)(C)C)n1
// result 3.23

// query Look at this compound and give its reported chromatographic logP. COc1nc(-n2ccc(-c3sc(-c4cccnc4)nc3C)n2)nc2c1CCC2
// result 3.18

// query Look at this compound and give its reported chromatographic logP. Cc1nc(-c2cccnc2)sc1-c1ccn(-c2cnccc2F)n1
// result 2.23

// query Look at this compound and give its reported chromatographic logP. CCNC(=O)n1ccc(-c2sc(-c3cccnc3)nc2C)n1
// result 2.05

// query Look at this compound and give its reported chromatographic logP. Cc1nc(-c2cccnc2)sc1C1=NCC(c2ccccn2)O1 (stereo not shown)
// result 1.72

// query Look at this compound and give its reported chromatographic logP. Cc1nc(-c2cccnc2)sc1-c1cccc(C2=NOCCO2)n1
// result 1.82
